Test: self-splicing fitness, log relative to wild type (ln ratio); higher = more splicing; Tetrahymena group I intron in knt gene, E. coli kanamycin selection, DiMSum; sequences stand for … in CUCUCU…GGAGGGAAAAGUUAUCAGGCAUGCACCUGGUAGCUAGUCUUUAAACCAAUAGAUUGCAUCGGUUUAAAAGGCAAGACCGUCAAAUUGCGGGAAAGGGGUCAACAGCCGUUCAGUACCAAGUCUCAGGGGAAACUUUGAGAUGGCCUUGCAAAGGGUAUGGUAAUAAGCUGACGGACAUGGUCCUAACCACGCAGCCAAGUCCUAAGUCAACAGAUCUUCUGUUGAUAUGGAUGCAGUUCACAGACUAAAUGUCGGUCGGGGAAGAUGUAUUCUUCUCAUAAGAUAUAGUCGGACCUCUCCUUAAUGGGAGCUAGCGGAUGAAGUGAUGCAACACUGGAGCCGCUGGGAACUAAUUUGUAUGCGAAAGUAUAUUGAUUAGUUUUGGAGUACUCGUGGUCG;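 note: selection with 25 µg/mL kanamycin versus none on LB agar overnight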
Conditions: 37 °C
Each entry below carries its recorded self-splicing fitness (ln).
Hey, just send me the number, nothing else.

AGGCAGCAAUAUUACGGUUU    -0.371
CCGGAGCAAUAUUACGAUAG    -0.152
AGGUAGCAAUAUUACGAUGU    -0.474
GAUUAGCAAUAUUACGAGAA    -1.51
UAAAAGCAAUAUUACGGUAA    -0.97
GAUAAGCAAUAUUACGAUCU    -1.55
CUCAAGCAAUAUUACGGGUU    -1.4
UGCUAGCAAUAUUACGCGAG    -2.11
CUCGAGCAAUAUUACGUGGG    -2.88
GGUAAGCAAUAUUACGGGAU    -0.913

Then this sequence:
*Q* Recorded self-splicing fitness (ln) for `AGCGAGCAAUAUUACGGCUU` , please?
*A* -2.02

----------
Test: self-splicing fitness, log relative to wild type (ln ratio); higher = more splicing; Tetrahymena group I intron in knt gene, E. coli kanamycin selection, DiMSum; sequences stand for … in CUCUCU…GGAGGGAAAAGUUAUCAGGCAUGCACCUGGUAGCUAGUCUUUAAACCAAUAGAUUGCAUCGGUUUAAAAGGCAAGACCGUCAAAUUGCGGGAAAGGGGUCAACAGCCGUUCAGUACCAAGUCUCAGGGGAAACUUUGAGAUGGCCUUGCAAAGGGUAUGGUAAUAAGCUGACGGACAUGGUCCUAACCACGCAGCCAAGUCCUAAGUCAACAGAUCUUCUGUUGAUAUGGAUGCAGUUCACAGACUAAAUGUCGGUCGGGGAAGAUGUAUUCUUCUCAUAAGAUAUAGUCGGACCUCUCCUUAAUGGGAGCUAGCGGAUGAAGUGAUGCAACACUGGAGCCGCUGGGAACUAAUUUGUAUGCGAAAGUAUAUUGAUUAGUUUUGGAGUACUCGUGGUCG
Details: 37 °C
Assign yes (1) to entries whose self-splicing fitness (ln) meets or exceeds -2; assign no (0) to the rest.

Solved entries (count: 3):
ACCUAGCAAUAUUACGGGUA    yes (1)
AUGAAGCAAUAUUACGCCGG    yes (1)
AUGAAGCAAUAUUACGAAGC    yes (1)

*Q* Textbook exercise: given the entry `GAAAAGCAAUAUUACGAAAU` , state whether its self-splicing fitness (ln) is greater than or equal to -2.
*A* yes (1)

*Q* Textbook exercise: given the entry `AGAGAGCAAUAUUACGACGU` , state whether its self-splicing fitness (ln) is greater than or equal to -2.
*A* yes (1)

*Q* Textbook exercise: given the entry `UUAGAGCAAUAUUACGACUU` , state whether its self-splicing fitness (ln) is greater than or equal to -2.
*A* yes (1)

----------
Each entry below carries its recorded self-splicing fitness (ln).
Experiment: self-splicing fitness, log relative to wild type (ln ratio); higher = more splicing; Tetrahymena group I intron in knt gene, E. coli kanamycin selection, DiMSum; sequences stand for … in CUCUCU…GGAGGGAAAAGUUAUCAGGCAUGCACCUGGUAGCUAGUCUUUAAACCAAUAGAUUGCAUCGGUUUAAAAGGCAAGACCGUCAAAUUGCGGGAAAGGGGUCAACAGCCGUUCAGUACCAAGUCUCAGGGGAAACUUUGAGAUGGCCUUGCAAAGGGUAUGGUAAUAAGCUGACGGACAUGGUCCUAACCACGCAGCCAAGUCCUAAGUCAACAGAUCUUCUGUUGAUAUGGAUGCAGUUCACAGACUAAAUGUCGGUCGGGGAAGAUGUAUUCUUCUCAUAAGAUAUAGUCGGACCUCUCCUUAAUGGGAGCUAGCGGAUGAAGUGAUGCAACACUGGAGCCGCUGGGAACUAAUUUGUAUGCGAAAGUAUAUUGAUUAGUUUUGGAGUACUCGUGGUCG
Details: 37 °C
Hey, just send me the number, nothing else.

CUUCAGCAAUAUUACGCUUG    -1.22
UAUUAGCAAUAUUACGUAUU    -1.25
AAUAAGCAAUAUUACGUGAG    -0.198
GGAUAGCAAUAUUACGCUCA    -0.278
CUCCAGCAAUAUUACGGAGU    -1.28
UUCAAGCAAUAUUACGCCGG    -0.469

*Q* Recorded self-splicing fitness (ln) for `AGGGAGCAAUAUUACGGUGU` , please?
*A* -2.37

*Q* Recorded self-splicing fitness (ln) for `CCUGAGCAAUAUUACGGGUU` , please?
*A* -2.56

*Q* Recorded self-splicing fitness (ln) for `UCAGAGCAAUAUUACGAUUG` , please?
*A* -2.41

*Q* Recorded self-splicing fitness (ln) for `UAGAAGCAAUAUUACGAUAC` , please?
*A* -2.46

*Q* Recorded self-splicing fitness (ln) for `ACCAAGCAAUAUUACGUGCA` , please?
*A* -0.466

----------
Each entry below carries its recorded self-splicing fitness (ln).
Assay: self-splicing fitness, log relative to wild type (ln ratio); higher = more splicing; Tetrahymena group I intron in knt gene, E. coli kanamycin selection, DiMSum; sequences stand for … in CUCUCU…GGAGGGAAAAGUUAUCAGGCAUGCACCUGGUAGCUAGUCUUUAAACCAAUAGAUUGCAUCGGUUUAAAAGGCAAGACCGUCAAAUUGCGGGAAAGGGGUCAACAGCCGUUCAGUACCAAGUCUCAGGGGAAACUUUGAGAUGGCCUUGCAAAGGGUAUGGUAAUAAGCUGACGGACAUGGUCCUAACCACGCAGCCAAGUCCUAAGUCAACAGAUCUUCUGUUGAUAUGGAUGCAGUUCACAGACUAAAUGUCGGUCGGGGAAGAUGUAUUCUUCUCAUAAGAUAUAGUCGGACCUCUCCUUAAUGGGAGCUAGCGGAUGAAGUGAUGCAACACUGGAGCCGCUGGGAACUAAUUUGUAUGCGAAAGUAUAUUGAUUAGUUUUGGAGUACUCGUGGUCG
Conditions: 37 °C
Hey, just send me the number, nothing else.

Below, each entry is followed by its recorded self-splicing fitness (ln) result.
GCCGAGCAAUAUUACGAUGU    -0.267
ACUGAGCAAUAUUACGUAAA    -2.33
AGAUAGCAAUAUUACGCCCA    -0.502
CGACAGCAAUAUUACGACCA    -0.397
ACGAAGCAAUAUUACGGUCA    -0.053

*Q* Recorded self-splicing fitness (ln) for `CGGCAGCAAUAUUACGUCAG` , please?
*A* -0.000984

*Q* Recorded self-splicing fitness (ln) for `GAUCAGCAAUAUUACGUCUA` , please?
*A* 0.145

----------
Assay: self-splicing fitness, log relative to wild type (ln ratio); higher = more splicing; Tetrahymena group I intron in knt gene, E. coli kanamycin selection, DiMSum; sequences stand for … in CUCUCU…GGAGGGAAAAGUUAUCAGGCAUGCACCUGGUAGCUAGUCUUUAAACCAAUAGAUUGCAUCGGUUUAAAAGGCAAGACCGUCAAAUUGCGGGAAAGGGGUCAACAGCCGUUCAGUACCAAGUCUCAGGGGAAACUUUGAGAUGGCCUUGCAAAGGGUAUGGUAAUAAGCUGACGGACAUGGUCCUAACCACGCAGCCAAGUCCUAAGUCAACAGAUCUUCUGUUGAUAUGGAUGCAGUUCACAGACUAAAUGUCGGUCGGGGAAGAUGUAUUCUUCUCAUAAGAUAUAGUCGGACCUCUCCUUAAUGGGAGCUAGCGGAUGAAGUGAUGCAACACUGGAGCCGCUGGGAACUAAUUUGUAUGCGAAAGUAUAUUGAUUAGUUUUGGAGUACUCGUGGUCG
Conditions: 30 °C
Each entry below carries its recorded self-splicing fitness (ln).
Hey, just send me the number, nothing else.

Below, each entry is followed by its recorded self-splicing fitness (ln) result.
GCCGAGCAAUAUUACGCCGC    -3.95
CACGAGCAAUAUUACGGGAU    -3.52
AACAAGCAAUAUUACGUAAU    -1.98
GCCCAGCAAUAUUACGUUCU    -1.95
AUCCAGCAAUAUUACGAGAC    -2.51
ACUUAGCAAUAUUACGAGGA    -1.87

*Q* Recorded self-splicing fitness (ln) for `GCAUAGCAAUAUUACGCACC` , please?
*A* -1.28

*Q* Recorded self-splicing fitness (ln) for `UGUUAGCAAUAUUACGGAUC` , please?
*A* -2.29

*Q* Recorded self-splicing fitness (ln) for `CAACAGCAAUAUUACGGCGA` , please?
*A* -1.5

*Q* Recorded self-splicing fitness (ln) for `AAUUAGCAAUAUUACGAACA` , please?
*A* -0.672

*Q* Recorded self-splicing fitness (ln) for `CCGCAGCAAUAUUACGUGAA` , please?
*A* -4.45

*Q* Recorded self-splicing fitness (ln) for `CCGCAGCAAUAUUACGAUAU` , please?
*A* -4.2

*Q* Recorded self-splicing fitness (ln) for `AGUUAGCAAUAUUACGGGUU` , please?
*A* -1.38

*Q* Recorded self-splicing fitness (ln) for `GAUCAGCAAUAUUACGGGCG` , please?
*A* -0.25

*Q* Recorded self-splicing fitness (ln) for `CAGAAGCAAUAUUACGGCGC` , please?
*A* -3.28

*Q* Recorded self-splicing fitness (ln) for `AACGAGCAAUAUUACGCAUG` , please?
*A* -4.23
